# credit: patent US20260258032A1

Biological target: JH2 domain of human Tyk2 (Homo sapiens, UniProt P29597)
Construct: 10×His-tagged TYK2 JH2 domain (amino acid 575-876)
Sequence (P29597 575-876): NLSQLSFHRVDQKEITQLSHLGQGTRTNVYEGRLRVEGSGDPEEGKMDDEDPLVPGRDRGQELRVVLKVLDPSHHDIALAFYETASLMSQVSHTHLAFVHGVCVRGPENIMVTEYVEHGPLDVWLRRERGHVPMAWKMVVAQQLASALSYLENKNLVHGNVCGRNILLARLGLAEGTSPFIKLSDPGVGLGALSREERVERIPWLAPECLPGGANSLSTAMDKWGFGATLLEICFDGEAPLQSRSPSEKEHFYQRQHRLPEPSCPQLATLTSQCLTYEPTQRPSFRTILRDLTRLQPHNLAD
Assay: JH2 biochemical assay (TR-FRET probe displacement)
Format: binding
Conditions: JH2 biochemical assay
Where a name gives a salt, the structure may show the parent alone.
Below: a set of entries, each annotated with reported IC50.
TEST_READOUT: IC50

>>> observed_value("CCc1cc(N2CC3(CC3)c3cnc(NC(=O)OC)cc32)nc(C(C)(F)F)n1 [Example 311, trifluoroacetate]")
"≤ 10 nM"
>>> observed_value("CC(=O)Nc1cc2c(cn1)C1(CC1)CN2c1cc(N(C)C)nc(C(C)(F)F)n1 [Example 20]")
"≤ 10 nM"
>>> observed_value("CC(=O)Nc1cc2c(cn1)C1(CC1)CN2c1cc(C)nc(S(C)(=O)=O)n1 [Example 136]")
"≤ 10 nM"
>>> observed_value("CC(=O)Nc1cc2c(cn1)C1(CC1)CN2c1cc(C)nc(C2CC2C)n1 (centres unmarked) [Example 123]")
"≤ 10 nM"
>>> observed_value("CC(=O)Nc1cc2c(cn1)C1(CC1)CN2c1cc(N2CCC2)nc(C(C)(F)F)n1 [Example 51]")
"≤ 10 nM"
>>> observed_value("CC(=O)Nc1cc2c(cn1)C1(CC1)CN2c1cc(C)nc(C(F)(F)CO)n1 [Example 289]")
"≤ 10 nM"
>>> observed_value("CC(=O)Nc1cc2c(cn1)C1(CC1)CN2c1cc(C)nc(OC2CC(F)(F)C2)n1 [Example 363]")
"100 to 1000 nM"
>>> observed_value("CC(=O)Nc1cc2c(cn1)C1(CC1)CN2c1cc(C)cc(N2CC3CCN(C)C3C2)n1 (centres unmarked) [Example 277, trifluoroacetate]")
"100 to 1000 nM"
